- SUBJECT OF TEST: IRAK4 (Homo sapiens)
- Construct: knocking-in a HiBiT fusion tag into the C-terminal of the IRAK4 gene in 293T cells; host or cells: 293T cells, knock-in of HiBiT at the endogenous IRAK4 locus
- Sequence (Q9NWZ3 1-460): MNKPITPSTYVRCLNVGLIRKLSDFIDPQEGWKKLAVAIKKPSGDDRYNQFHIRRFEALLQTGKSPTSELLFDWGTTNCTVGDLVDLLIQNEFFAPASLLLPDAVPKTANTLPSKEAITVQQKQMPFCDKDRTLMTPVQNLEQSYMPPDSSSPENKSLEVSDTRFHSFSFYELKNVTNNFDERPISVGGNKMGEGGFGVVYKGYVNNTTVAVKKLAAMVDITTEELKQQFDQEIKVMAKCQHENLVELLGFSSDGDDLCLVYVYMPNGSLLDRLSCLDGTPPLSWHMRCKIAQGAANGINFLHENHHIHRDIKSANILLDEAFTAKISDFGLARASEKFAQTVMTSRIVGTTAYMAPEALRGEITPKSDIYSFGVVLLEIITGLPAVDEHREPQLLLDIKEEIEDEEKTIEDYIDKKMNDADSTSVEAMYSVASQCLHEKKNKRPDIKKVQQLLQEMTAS
- METHOD NOTES: IRAK4 degradation assay using the HiBiT Method
- Assay type: cell-based
- MEASUREMENT CONDITIONS: 293T cells expressing HiBiT-tagged IRAK4; 6-hour incubation; Nano-Glo HiBiT Lytic Assay luminescence
DC50 values for the compounds below.
ATTRIBUTE MEASURED: DC50

[
  {
    "COMPOUND": "CC(C)Oc1cc2nc(C3CCN(CC(=O)N4CCC(c5ccc(NC6CCC(=O)NC6=O)cc5)CC4)CC3)cn2cc1NC(=O)c1cnn2cccnc12 (stereo not drawn)",
    "ATTRIBUTE MEASURED": "DC50",
    "OBSERVED RESULT": "< 10 nM"
  },
  {
    "COMPOUND": "CC(C)Oc1cc2nc(C3CCN(CCC(=O)N4CCC(c5ccc(NC6CCC(=O)NC6=O)cc5F)CC4)CC3)cn2cc1NC(=O)c1cccc(C(F)(F)F)n1 (stereo not drawn)",
    "ATTRIBUTE MEASURED": "DC50",
    "OBSERVED RESULT": "100 to 500 nM"
  },
  {
    "COMPOUND": "Cc1cc(N2CCN(C(=O)CN3CCC(c4cn5cc(NC(=O)c6cccc(C(F)(F)F)n6)c(OC(C)C)cc5n4)CC3)CC2)ccc1NC1CCC(=O)NC1=O (stereo not drawn)",
    "ATTRIBUTE MEASURED": "DC50",
    "OBSERVED RESULT": "100 to 500 nM"
  },
  {
    "COMPOUND": "CC(C)Oc1cc2nc(C3CCN(C(=O)CCC4CCN(C(=O)c5ccc(OC6CCC(=O)NC6=O)cc5)CC4)CC3)cn2cc1NC(=O)c1cccc(C(F)(F)F)n1 (stereo not drawn)",
    "ATTRIBUTE MEASURED": "DC50",
    "OBSERVED RESULT": "100 to 500 nM"
  },
  {
    "COMPOUND": "CC(C)Oc1cc2nc(C3CCN(C(=O)CN4CCC(c5ccc(NC6CCC(=O)NC6=O)cc5F)CC4)CC3)cn2cc1NC(=O)c1cccc(C(F)(F)F)n1 (stereo not drawn)",
    "ATTRIBUTE MEASURED": "DC50",
    "OBSERVED RESULT": "100 to 500 nM"
  },
  {
    "COMPOUND": "Cc1cc(NC2CCC(=O)NC2=O)ccc1C1CCN(C(=O)CN2CCC(c3cn4cc(NC(=O)c5cccc(C(F)(F)F)n5)c(OC(C)C)cc4n3)CC2)CC1 (stereo not drawn)",
    "ATTRIBUTE MEASURED": "DC50",
    "OBSERVED RESULT": "10 to 100 nM"
  },
  {
    "COMPOUND": "Cc1cc(-c2nc(C(=O)Nc3cn4cc(C5CCN(CC(=O)N6CCC(c7ccc(NC8CCC(=O)NC8=O)cc7)CC6)CC5)nc4cc3OC(C)C)co2)ccn1 (stereo not drawn)",
    "ATTRIBUTE MEASURED": "DC50",
    "OBSERVED RESULT": "10 to 100 nM"
  },
  {
    "COMPOUND": "CC(C)Oc1cc2nc(C3CCN(CCN4CCC(c5ccc(CN6CCC(=O)NC6=O)cc5)CC4)CC3)cn2cc1NC(=O)c1cccc(C(F)(F)F)n1",
    "ATTRIBUTE MEASURED": "DC50",
    "OBSERVED RESULT": "100 to 500 nM"
  },
  {
    "COMPOUND": "CC(C)Oc1cc2nc(C3CCN(CC(=O)N4CCC(c5ccc(NC6CCC(=O)NC6=O)cc5)CC4)CC3)cn2cc1NC(=O)c1cccc(C(F)(F)F)c1 (stereo not drawn)",
    "ATTRIBUTE MEASURED": "DC50",
    "OBSERVED RESULT": "100 to 500 nM"
  },
  {
    "COMPOUND": "CC(C)Oc1cc2nc([C@H](Cc3ccccc3)NC(=O)CN3CCC(c4ccc(C5CCC(=O)NC5=O)cc4)CC3)cn2cc1NC(=O)c1cccc(C(F)(F)F)n1 (stereo partly drawn)",
    "ATTRIBUTE MEASURED": "DC50",
    "OBSERVED RESULT": "100 to 500 nM"
  },
  {
    "COMPOUND": "CC(C)Oc1cc2nn(C3CCN(CC(=O)N4CCC(c5ccc(NC6CCC(=O)NC6=O)cc5)CC4)CC3)cc2cc1NC(=O)c1cccc(C(F)(F)F)n1 (stereo not drawn)",
    "ATTRIBUTE MEASURED": "DC50",
    "OBSERVED RESULT": "10 to 100 nM"
  },
  {
    "COMPOUND": "CC(C)Oc1cc2nn(C3CCN(C(=O)CN4CCC(c5ccc(NC6CCC(=O)NC6=O)cc5F)CC4)CC3)cc2cc1NC(=O)c1cccc(C(F)(F)F)n1 (stereo not drawn)",
    "ATTRIBUTE MEASURED": "DC50",
    "OBSERVED RESULT": "10 to 100 nM"
  }
]
